# Tested on: Colletotrichum lagenaria
# Assay Comment: Fungicidal activity against Colletotrichum lagenaria at 50 ug/ml by growth inhibition method
# Assay type: functional
# Measurement Conditions: read-out: GI
Reported Metric: inhibition of growth at 50 µg/mL (%)
// note: answer is a bare numeric in %

Consider the reported inhibition of growth at 50 µg/mL for these molecules:
1. Cc1ccc(N(C(=O)c2nnsc2C)C(C(=O)NC(C)C)c2ccc(F)cc2)cc1F (configuration not stated) :: 0
2. Cc1cccc(C(C(=O)NC(C)C)N(C(=O)c2nnsc2C)c2ccc(C)c(F)c2)c1 (configuration not stated) :: 0
3. Cc1ccc(N(C(=O)c2nnsc2C)C(C(=O)NC2CCCCC2)c2cccc([N+](=O)[O-])c2)cc1F (configuration not stated) :: 0
4. Cc1ccc(N(C(=O)c2nnsc2C)C(C(=O)NC(C)C)c2cccc([N+](=O)[O-])c2)cc1F (configuration not stated) :: 29
5. Cc1ccc(N(C(=O)c2nnsc2C)C(C(=O)NC(C)C)c2ccc(Cl)cc2)cc1F (configuration not stated) :: 14
6. Cc1ccc(N(C(=O)c2nnsc2C)C(C(=O)NC2CCCCC2)c2ccccc2C(F)(F)F)cc1F (configuration not stated) :: 14
7. Cc1ccc(N(C(=O)c2nnsc2C)C(C(=O)NC2CCCCC2)c2ccccc2C)cc1F (configuration not stated) :: 29
8. Cc1ccc(N(C(=O)c2nnsc2C)C(C(=O)NC2CCCCC2)c2ccccc2[N+](=O)[O-])cc1F (configuration not stated) :: 0

inhibition of growth at 50 µg/mL reading for Cc1ccc(N(C(=O)c2nnsc2C)C(C(=O)NC(C)C)c2ccccc2Cl)cc1Cl (configuration not stated) : 13

Lookup result for Cc1ccc(N(C(=O)c2nnsc2C)C(C(=O)NC(C)C)c2ccccc2O)cc1Cl (configuration not stated) ; measured inhibition of growth at 50 µg/mL: 7

The value of inhibition of growth at 50 µg/mL measured for the molecule Cc1ccc(N(C(=O)c2nnsc2C)C(C(=O)NC(C)C)c2cccc(O)c2)cc1Cl (configuration not stated) turned out to be 13

Note to self: inhibition of growth at 50 µg/mL recorded for Cc1ccc(N(C(=O)c2nnsc2C)C(C(=O)NC(C)C)c2ccccc2)cc1F (configuration not stated) was 14

inhibition of growth at 50 µg/mL reported for this molecule Cc1ccc(N(C(=O)c2nnsc2C)C(C(=O)NC2CCCCC2)c2ccc(O)cc2)cc1F (configuration not stated) : 36

Lookup result for Cc1ccc(C(C(=O)NC(C)C)N(C(=O)c2nnsc2C)c2ccc(C)c(F)c2)cc1 (configuration not stated) ; measured inhibition of growth at 50 µg/mL: 29

The measured inhibition of growth at 50 µg/mL associated with Cc1ccc(N(C(=O)c2nnsc2C)C(C(=O)NC(C)C)c2cccc(Cl)c2)cc1F (configuration not stated) reads 0
